Sourced from paper PMC7566295

System: NDM-1 (Klebsiella pneumoniae)
Construct: made in house; host or cells: E. coli BL21
Sequence (C7C422 29-270, looked up): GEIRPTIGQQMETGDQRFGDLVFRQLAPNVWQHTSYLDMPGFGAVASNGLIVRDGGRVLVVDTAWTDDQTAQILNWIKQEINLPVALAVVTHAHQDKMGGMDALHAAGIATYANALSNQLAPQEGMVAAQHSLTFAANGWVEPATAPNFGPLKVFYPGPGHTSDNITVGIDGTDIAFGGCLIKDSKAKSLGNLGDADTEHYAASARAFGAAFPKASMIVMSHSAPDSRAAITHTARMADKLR
Test: Enzyme inhibition assay (nitrocefin hydrolysis)
Type: biochemical
Each record is given fulfilled if its reported IC50 is strictly below 100 µM. Records at or above 100 µM are given not fulfilled.

Answer whether the compound O=C(O)/C=C/c1ccccc1 has IC50 strictly less than 100 µM
not fulfilled

Answer whether the compound COc1cc(O)cc2c1C(=O)C[C@@H](c1ccccc1)O2 has IC50 strictly less than 100 µM
not fulfilled

Answer whether the compound CC(C)c1cc2c(c(O)c1O)[C@@]1(C(=O)O)CCCC(C)(C)[C@@H]1CC2 has IC50 strictly less than 100 µM
fulfilled

Answer whether the compound O=C1C[C@@H](c2ccc(O[C@@H]3O[C@H](CO)[C@@H](O)[C@H](O)[C@H]3O)cc2)Oc2cc(O)ccc21 has IC50 strictly less than 100 µM
not fulfilled

Answer whether the compound O=C(/C=C/c1ccc(O)cc1)c1ccc(O)cc1O has IC50 strictly less than 100 µM
not fulfilled
